target: human α3β3γ2 GABAARs (benzodiazepine site) (Homo sapiens (Human), UniProt P18507+P34903); experiment: In vitro radioligand binding assay ([3H]Ro15-1788 displacement), α3-GABAAR Ki; conditions: L(tk-) cell membranes, 4 nM [3H]Ro15-1788
What Ki was measured for each of the following?
Only the number, expressed in nM, is required.

Task: # return recorded Ki for entry CCCNC(=O)c1c(N)c2cccc(-c3cc(OCc4nnc(C(F)(F)F)o4)ccc3F)c2[nH]c1=O [Example 132]
Output: 1.19

Task: # return recorded Ki for entry CCCNC(=O)c1c(N)c2cccc(-c3cc(CN4CCN(C)CC4)ccc3F)c2[nH]c1=O [Example 137]
Output: 8.07

Task: # return recorded Ki for entry CCCNC(=O)c1c(N)c2cccc(-c3nc(C(F)(F)F)ccc3C)c2[nH]c1=O [Example 13]
Output: 7.6

Task: # return recorded Ki for entry CCCNC(=O)c1c(N)c2cccc(-c3cc(OCc4cccc(C)n4)ccc3F)c2[nH]c1=O [Example 88]
Output: 1.37
